Values from the RepoRT retention time repository (doi:10.1002/minf.201400016)

- experiment-summary: RP, Waters ACQUITY UPLC HSS T3, 150 × 2.1 mm, 1.7 µm, 30 °C, 0.4 mL/min, estimated dead time 0.83 min; A: water + 0.2% formic acid; B: 2% water + 98% acetonitrile + 0.2% formic acid; gradient (min/%B) 0/0 2.5/0 7.5/10 10/100 12/100 18/0 25/0
- protocol-conditions: stereoisomer not certain
readout-name: LC retention time (min)

{"molecule": "CC(=CCNc1ncnc2c1ncn2C1OC(CO)C(O)C1O)CO (stereo not drawn) [9-ribosyl-trans-zeatin]", "LC retention time (min)": 8.91}
{"molecule": "COc1cc(C(=O)O)ccc1O [vanillic acid]", "LC retention time (min)": 9.27}
{"molecule": "O=c1ccc2cc(OC3OC(CO)C(O)C(O)C3O)c(O)cc2o1 (centres undefined) [esculin hydrate]", "LC retention time (min)": 8.95}
{"molecule": "Cn1cc(CC(N)C(=O)O)c2ccccc21 (centres undefined) [1-methyltryptophan]", "LC retention time (min)": 9.17}
